These data points were gathered from the supplement of paper PMC10724198.

protein stability index: recorded values
System: Saccharomyces cerevisiae
Assay: protein stability index of tFT-peptide fusion (C-terminal peptide) (PSI (0-1 scale)); higher = more stable (slower turnover)
Conditions: genetic background: wild type; temperature: 30 C
Answer as a number with no unit attached.

Some sequences with recorded protein stability index:
[
  {
    "sequence text": "FSLSLACPPPHS",
    "protein stability index": 0.679
  },
  {
    "sequence text": "APSVSKNSEVRK",
    "protein stability index": 0.681
  },
  {
    "sequence text": "PPPLLSAPPHCE",
    "protein stability index": 0.684
  },
  {
    "sequence text": "SLPRPASYPPRF",
    "protein stability index": 0.652
  },
  {
    "sequence text": "TFVVGTRVFSCD",
    "protein stability index": 0.631
  },
  {
    "sequence text": "VPCLVHEVYDEV",
    "protein stability index": 0.732
  }
]

protein stability index lookup needed for `NFEVHRCGISLR` , thanks.
0.681

protein stability index lookup needed for `TLLMVSMTVRPL` , thanks.
0.38

protein stability index lookup needed for `DKLDKKTLYLRK` , thanks.
0.729

protein stability index lookup needed for `SLLLALPSLPLS` , thanks.
0.553

protein stability index lookup needed for `SQRPPPLCDFTD` , thanks.
0.723

protein stability index lookup needed for `FVFGVCGGGGIG` , thanks.
0.671

protein stability index lookup needed for `PPVPSLFPPPPH` , thanks.
0.674

protein stability index lookup needed for `PPLPTPPPPPDP` , thanks.
0.662

protein stability index lookup needed for `SYGPKMAKAVFR` , thanks.
0.706

protein stability index lookup needed for `QCASPRLSLGSP` , thanks.
0.703

protein stability index lookup needed for `DCCTGGKCLEVW` , thanks.
0.603

protein stability index lookup needed for `MPTSYDGCDRGH` , thanks.
0.713

protein stability index lookup needed for `SEDLSNNMKQDI` , thanks.
0.688

protein stability index lookup needed for `VVKFLALIPLSP` , thanks.
0.583

====

System: Saccharomyces cerevisiae
Experiment: protein stability index of tFT-peptide fusion in deletion strain of DAS1 (PSI (0-1 scale)); higher = more stable (slower turnover)
Answer False if protein stability index is under 0.6, and True if it is 0.6 or more.

Dear colleague, could you confirm whether `LKILRQKMNHQNH` has protein stability index at or above 0.6?
True

Dear colleague, could you confirm whether `NKHKKGQKQKIN` has protein stability index at or above 0.6?
False

====

protein stability index: recorded values
Tested on: Saccharomyces cerevisiae
Test: protein stability index of tFT-peptide fusion (C-terminal peptide) (PSI (0-1 scale)); higher = more stable (slower turnover)
Conditions: genetic background: das1 deletion; temperature: 30 C
Answer as a number with no unit attached.

[
  {
    "sequence text": "RYRLEKVIGKRW [SPO20 C-terminal 12 aa]",
    "protein stability index": 0.704
  },
  {
    "sequence text": "DDKPKIPTMLNA [YME1 C-terminal 12 aa]",
    "protein stability index": 0.7
  },
  {
    "sequence text": "YNDHRLPKRAKK [HSF1 C-terminal 12 aa]",
    "protein stability index": 0.695
  },
  {
    "sequence text": "NLANDEQPLHNL [MDM30 C-terminal 12 aa]",
    "protein stability index": 0.699
  },
  {
    "sequence text": "KKLAKSGIEFKW [NOP15 C-terminal 12 aa]",
    "protein stability index": 0.704
  },
  {
    "sequence text": "GKRRMNPGPSVQ [RPS30A C-terminal 12 aa]",
    "protein stability index": 0.696
  }
]

Request - read-out protein stability index | tested on Saccharomyces cerevisiae | sequence KKTAIDKLITLL [AIM18 C-terminal 12 aa]
0.681

Request - read-out protein stability index | tested on Saccharomyces cerevisiae | sequence DLIESTFRSITQ [PAN3 C-terminal 12 aa]
0.719

Request - read-out protein stability index | tested on Saccharomyces cerevisiae | sequence KPIETVFDEETV [YIP3 C-terminal 12 aa]
0.697

Request - read-out protein stability index | tested on Saccharomyces cerevisiae | sequence EECVKVQWESRT [TSR4 C-terminal 12 aa]
0.681

Request - read-out protein stability index | tested on Saccharomyces cerevisiae | sequence KDEVTDDMQLEV [JLP2 C-terminal 12 aa]
0.7

Request - read-out protein stability index | tested on Saccharomyces cerevisiae | sequence RLVRNVELSKEK [MTD1 C-terminal 12 aa]
0.708

====

Test system: Saccharomyces cerevisiae
Experiment: protein stability index of tFT-peptide fusion (C-terminal peptide) (PSI (0-1 scale)); higher = more stable (slower turnover)
Conditions: genetic background: wild type; temperature: 30 C
Answer not satisfied if protein stability index is under 0.7, and satisfied if it is 0.7 or more.

Please review the entries below; each comes with its answer.
[
  {
    "sequence text": "SPTQIPLWILAS",
    "assigned category": "not satisfied"
  },
  {
    "sequence text": "PPPPPLSSPPSP",
    "assigned category": "not satisfied"
  },
  {
    "sequence text": "KREARGERGKGE",
    "assigned category": "not satisfied"
  }
]

Note: attention shifts to another entry.
Dear colleague, could you confirm whether `VCRRSVLHSCWS` has protein stability index at or above 0.7?
not satisfied

====

protein stability index: recorded values
Test system: Saccharomyces cerevisiae
Test: protein stability index of tFT-peptide fusion (C-terminal peptide) (PSI (0-1 scale)); higher = more stable (slower turnover)
Settings: genetic background: wild type; temperature: 30 C
Answer as a number with no unit attached.

[
  {
    "sequence text": "KKEQKSKTEMRK",
    "protein stability index": 0.712
  }
]

protein stability index lookup needed for `KQKKNKKKKQNR` , thanks.
0.699

protein stability index lookup needed for `WFLSGGCLFCWR` , thanks.
0.714

protein stability index lookup needed for `TVWSSPPSRRSS` , thanks.
0.699

protein stability index lookup needed for `PLPPLSSPRPPP` , thanks.
0.711

protein stability index lookup needed for `RPPSLWRSSFTP` , thanks.
0.682

protein stability index lookup needed for `VLFGSVSCCLLW` , thanks.
0.686

protein stability index lookup needed for `AAMKQAIKGPVK` , thanks.
0.696

====

Test system: Saccharomyces cerevisiae
Assay: protein stability index of tFT-peptide fusion (C-terminal peptide) (PSI (0-1 scale)); higher = more stable (slower turnover)
Conditions: genetic background: wild type; temperature: 30 C
endpoint name: protein stability index
Answer as a number with no unit attached.

Some sequences with recorded protein stability index:
[
  {
    "sequence text": "PPPPPRPPPPAP",
    "protein stability index": 0.595
  },
  {
    "sequence text": "PAAIARNPLPHR",
    "protein stability index": 0.605
  },
  {
    "sequence text": "PAVARPLGPPPY",
    "protein stability index": 0.714
  },
  {
    "sequence text": "DTHESELNQLNG",
    "protein stability index": 0.69
  },
  {
    "sequence text": "NKQKKKKSTKRN",
    "protein stability index": 0.704
  },
  {
    "sequence text": "ALRVGTGTVRFE",
    "protein stability index": 0.712
  },
  {
    "sequence text": "RDLGGECARQVG",
    "protein stability index": 0.7
  },
  {
    "sequence text": "SPPHASPPVLPW",
    "protein stability index": 0.72
  }
]

protein stability index lookup needed for `GACFLGGRLCGR` , thanks.
0.686

protein stability index lookup needed for `TRGKETESIDSR` , thanks.
0.685

protein stability index lookup needed for `GRRMGHQLGAGA` , thanks.
0.684

protein stability index lookup needed for `EQQLSHENMQFK` , thanks.
0.68

====

Tested on: Saccharomyces cerevisiae
Assay: protein stability index of tFT-peptide fusion (C-terminal peptide) (PSI (0-1 scale)); higher = more stable (slower turnover)
Conditions: genetic background: wild type; temperature: 30 C
endpoint name: protein stability index
Answer as a number with no unit attached.

Some sequences with recorded protein stability index:
[
  {
    "sequence text": "WGCTGGRGRLVC",
    "protein stability index": 0.295
  },
  {
    "sequence text": "EGVVLLVDCVAT",
    "protein stability index": 0.308
  },
  {
    "sequence text": "CRAAMYSFFLNF",
    "protein stability index": 0.299
  }
]

Please find the next sequence below.
protein stability index lookup needed for `IKSLLGCWHKHY` , thanks.
0.303

====

System: Saccharomyces cerevisiae
Test: protein stability index of tFT-peptide fusion (C-terminal peptide) (PSI (0-1 scale)); higher = more stable (slower turnover)
Conditions: genetic background: wild type; temperature: 30 C
endpoint name: protein stability index
Answer as a number with no unit attached.

Some sequences with recorded protein stability index:
[
  {
    "sequence text": "YKGNVRNPTLHA",
    "protein stability index": 0.655
  },
  {
    "sequence text": "PSGNGAPRVHRK",
    "protein stability index": 0.65
  },
  {
    "sequence text": "SEDGPTPAPSTD",
    "protein stability index": 0.71
  },
  {
    "sequence text": "SSVFRSYTSVLS",
    "protein stability index": 0.686
  },
  {
    "sequence text": "CLQYRACLILLT",
    "protein stability index": 0.425
  },
  {
    "sequence text": "PLSNAPRPSQVA",
    "protein stability index": 0.736
  }
]

protein stability index lookup needed for `VFRRWGLIGVIV` , thanks.
0.378

protein stability index lookup needed for `SALVLVLPSIPP` , thanks.
0.649

protein stability index lookup needed for `LGRVSAKFFCVL` , thanks.
0.239

protein stability index lookup needed for `CRGGLGASCRGR` , thanks.
0.67

protein stability index lookup needed for `SPPPFLCSPFVA` , thanks.
0.684

protein stability index lookup needed for `WCRVCNRLVVGV` , thanks.
0.526

protein stability index lookup needed for `IIVPCGRWEGGG` , thanks.
0.69

protein stability index lookup needed for `PPPAPPPPHSLV` , thanks.
0.717

protein stability index lookup needed for `IVNKRLKIRKKQ` , thanks.
0.658

protein stability index lookup needed for `NLQKTRNRRTVE` , thanks.
0.643

protein stability index lookup needed for `TPPSPDPSPPNT` , thanks.
0.789

protein stability index lookup needed for `KKRMKKKTKNKN` , thanks.
0.652

protein stability index lookup needed for `QSTRPHSHGCLG` , thanks.
0.748
